Test system: Human RSV-A (“Long” strain)
Assay: RSV in vitro cytoprotection assay (CPE, ATPlite) in HEp-2 cells
Assay type: cell-based
Settings: human respiratory syncytial virus, 96 h; HEp-2 cells, 4-day incubation, ATPlite readout; read-out: Human RSV-A (“Long” strain) EC50
pEC50: −log10 of the molar value.
OUTCOME_MEASURE: pEC50

[
  {
    "STRUCTURE": "O=C(Nc1c(F)cccc1F)c1cc2c(s1)-c1c(ccc(F)c1F)N(C(=O)c1ccc(NC(=O)c3cccnc3N3CC4(CCOCC4)C3)cc1)CC2",
    "pEC50": "7.30 to 8.00"
  },
  {
    "STRUCTURE": "Cc1cnc(N2CC3(CCOCC3)C2)c(C(=O)Nc2ccc(C(=O)N3CCc4c(sc(-c5nc6ccccc6[nH]5)c4F)-c4ccccc43)cc2)c1",
    "pEC50": "> 8.00"
  }
]

Kindly consider the entry below.
pEC50 on Human RSV-A (“Long” strain) for Cc1cnc(N2CC3(CCOCC3)C2)c(C(=O)Nc2ccc(C(=O)N3CCc4cc(NC(=O)c5c(C)cccc5C)sc4-c4ccccc43)cc2)c1 is 7.30 to 8.00

###

Test system: Human RSV-A (“Long” strain)
Test: RSV in vitro cytoprotection assay (CPE, ATPlite) in HEp-2 cells
Assay type: cell-based
Conditions: human respiratory syncytial virus, 96 h; HEp-2 cells, 4-day incubation, ATPlite readout; read-out: Human RSV-A (“Long” strain) EC50
Measured EC50, listed per entry.

Below, each entry is followed by its recorded EC50 result.
[
  {
    "STRUCTURE": "Cc1cnc(N2CC3(CCOCC3)C2)c(C(=O)Nc2ccc(C(=O)N3CCc4c(sc(-c5nc6ccccc6[nH]5)c4C)-c4ccccc43)cc2)c1",
    "EXPERIMENTAL_SYSTEM": "Human RSV-A (“Long” strain)",
    "READOUT_VALUE": "10 to 50 nM"
  },
  {
    "STRUCTURE": "O=C(Nc1ccc(C(=O)N2CCc3cc(-c4nc5cccc(F)c5[nH]4)sc3-c3ccc(F)cc32)cc1)c1cccnc1N1CC2(CCOCC2)C1",
    "EXPERIMENTAL_SYSTEM": "Human RSV-A (“Long” strain)",
    "READOUT_VALUE": "10 to 50 nM"
  },
  {
    "STRUCTURE": "Cc1cnc(N2CC3(CCOCC3)C2)c(C(=O)Nc2ccc(C(=O)N3CCc4cc(-c5nnco5)sc4-c4ccc(F)cc43)cc2)c1",
    "EXPERIMENTAL_SYSTEM": "Human RSV-A (“Long” strain)",
    "READOUT_VALUE": "< 10 nM"
  },
  {
    "STRUCTURE": "Cc1cnc(N2CC3(CCOCC3)C2)c(C(=O)Nc2ccc(C(=O)N3CCc4c(sc(-c5nc6cccc(C(F)(F)F)c6[nH]5)c4F)-c4ccccc43)cc2)c1",
    "EXPERIMENTAL_SYSTEM": "Human RSV-A (“Long” strain)",
    "READOUT_VALUE": "10 to 50 nM"
  },
  {
    "STRUCTURE": "O=C(Nc1c(F)cc(F)cc1Cl)c1cc2c(s1)-c1ccc(Cl)cc1N(C(=O)c1ccc(NC(=O)c3cccnc3N3CC4(CCOCC4)C3)cc1)CC2",
    "EXPERIMENTAL_SYSTEM": "Human RSV-A (“Long” strain)",
    "READOUT_VALUE": "10 to 50 nM"
  },
  {
    "STRUCTURE": "Cc1cnc(N2CC3(CCOCC3)C2)c(C(=O)Nc2ccc(C(=O)N3CCc4cc(-c5nnnn5C5CC5)sc4-c4ccc(F)cc43)cc2)c1",
    "EXPERIMENTAL_SYSTEM": "Human RSV-A (“Long” strain)",
    "READOUT_VALUE": "10 to 50 nM"
  }
]

Entry O=C(Nc1c(F)cccc1F)c1cc2c(s1)-c1ccc(F)cc1N(C(=O)c1ccc(NC(=O)c3cccnc3C3CCOCC3)cc1)CC2 , EC50 reported as 10 to 50 nM

Documented EC50 of Cc1cnc(N2CC3(CCOCC3)C2)c(C(=O)Nc2ccc(C(=O)N3CCc4c(sc(C(=O)Nc5cccc(C(F)(F)F)n5)c4F)-c4ccccc43)cc2)c1 : > 50 nM

Consider Cc1ccc(C(=O)Nc2ccc(C(=O)N3CCc4cc(C(=O)Nc5ncccc5F)sc4-c4ccc(F)cc43)cc2)c(N2CC3(CCOCC3)C2)n1 . Its measured EC50 is < 10 nM

The compound identified as O=C(Nc1c(F)cccc1F)c1cc2c(s1)-c1ccc(F)cc1N(C(=O)c1ccc(NC(=O)c3cc(F)cnc3N3CC4(CCOCC4)C3)cc1)CC2 registered its EC50 at < 10 nM

Per the records, this compound ( O=C(Nc1c(Cl)cccc1Cl)c1cc2c(o1)-c1ccc(F)cc1N(C(=O)c1ccc(NC(=O)c3cc4c(nc3N3CC5(CCOCC5)C3)CCCC4)cc1)CC2 ) has EC50 equal to < 10 nM

Reported EC50 of N#Cc1cnc(N2CC3(CCOCC3)C2)c(C(=O)Nc2ccc(C(=O)N3CCc4cc(C(=O)Nc5c(F)cc(F)cc5Cl)sc4-c4ccc(F)cc43)cc2)c1 : 10 to 50 nM

Kindly note the recorded EC50 for O=C(Nc1c(F)cccc1F)c1cc2c(o1)-c1ccc(F)cc1N(C(=O)c1ccc(NC(=O)c3cccnc3N3CC4(CCOCC4)C3)cc1)CC2 , which is < 10 nM

Lab note: measured EC50 of Cc1cnc(N2CC3(CCOCC3)C2)c(C(=O)Nc2ccc(C(=O)N3CCc4c(sc(-c5nc6cccc(Cl)c6[nH]5)c4F)-c4ccccc43)cc2)c1 was 10 to 50 nM

# EC50 (compound: Cc1cnc(N2CC3(CCOCC3)C2)c(C(=O)Nc2ccc(C(=O)N3CCc4cc(NC(=O)c5c(F)cccc5Cl)sc4-c4ccccc43)cc2)c1 ) is < 10 nM

Cited source: patent US11091501B2
